Just for reference, patent US20160264649A1 is where these values come from.

- tgt: HIV-1 92TH021 Env (HIV-1 strain 92TH021)
- assay-method-text: cell-based or functional assay
measure-name: IC50 neutralization, 18 hour virus/Ab incubation (µg/mL)
Give the value, in units of µg/mL, as a plain number.

[[record]]
binder = "1443_C16 (PG16) (TCN-116) (antibody, V domains shown) VH: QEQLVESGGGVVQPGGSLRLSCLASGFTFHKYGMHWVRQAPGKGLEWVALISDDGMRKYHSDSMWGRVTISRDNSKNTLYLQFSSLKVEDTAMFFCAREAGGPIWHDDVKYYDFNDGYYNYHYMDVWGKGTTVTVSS VL: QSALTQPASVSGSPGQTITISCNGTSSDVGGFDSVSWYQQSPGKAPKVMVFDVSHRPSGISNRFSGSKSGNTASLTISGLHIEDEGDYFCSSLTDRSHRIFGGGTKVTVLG"
readout_units = "µg/mL"
numeric_readout = 0.0435


Entry 1496_C09 (PG9) (TCN-109) (antibody, V domains shown) VH: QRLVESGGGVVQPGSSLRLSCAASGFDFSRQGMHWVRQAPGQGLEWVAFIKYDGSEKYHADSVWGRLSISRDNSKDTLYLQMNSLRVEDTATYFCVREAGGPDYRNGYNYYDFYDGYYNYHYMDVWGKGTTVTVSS VL: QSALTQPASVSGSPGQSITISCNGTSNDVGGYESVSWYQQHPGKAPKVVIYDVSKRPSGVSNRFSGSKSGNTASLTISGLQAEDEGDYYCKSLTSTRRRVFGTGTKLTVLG needs its IC50 neutralization, 18 hour virus/Ab incubation filled in; supply it.
0.0571
